SUBJECT_OF_TEST: T1, human 14-3-3σ, full length, 6His-Linker-h14-3-3 (human, UniProt P31947 1-248)
T1 construct: 14-3-3 protein sigma, human, cloned in pProEx Htb; also called σ isoform of human 14-3-3; source: E. coli BL21 (DE3)STAR, purified (Ni-NTA, SEC); not shown: His6 with linker [residues removed], N-terminal, kept
T1 sequence (looked up): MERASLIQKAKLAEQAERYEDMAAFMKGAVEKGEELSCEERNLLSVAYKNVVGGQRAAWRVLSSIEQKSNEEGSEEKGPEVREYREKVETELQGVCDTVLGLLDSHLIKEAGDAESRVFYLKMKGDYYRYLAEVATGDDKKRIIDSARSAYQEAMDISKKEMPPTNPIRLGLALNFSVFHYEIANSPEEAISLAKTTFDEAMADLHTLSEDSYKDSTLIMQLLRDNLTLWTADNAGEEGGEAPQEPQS
PROTOCOL_SUMMARY: fluorescence polarisation; FITC-labelled peptide at 60 nM (monophosphorylated) or 10 nM (doubly phosphorylated) titrated with 14-3-3ζ or 14-3-3σ in dilution series from 300 μM or 150 μM; 30 min at RT; 384-well plate; Hill fit; triplicates
CONDITION_SET: both partners purified
Non-standard residues stand in square brackets, D forms with d. Primed or numbered codes have the meaning given here. No end group written: not given here. *: point of attachment. FITC′ = fluorescein isothiocyanate tag added on resin (method C); FITC = O=C1OC2(c3ccc(O)cc3Oc3cc(O)ccc32)c2ccc(NC(=S)*)cc21; pT = C[C@@H](OP(=O)(O)O)[C@H](N)C(=O)O; pS = N[C@@H](COP(=O)(O)O)C(=O)O
MEASUREMENT_KIND: binding result

# count of solved cases: 4
{"BINDER": "{FITC}-DLSKAV[pS]LSMGLY (peptide, UniProt P04150 77-89, looked up, glucocorticoid receptor (GR), human; 13-mer centred on S83; source: synthetic peptide) [GR pS83, FITC-labelled 13-mer phosphopeptide]", "binding result": "binds"}
{"BINDER": "{FITC}-INEQRM[pT]LPCMYD (peptide, UniProt P04150 629-641, looked up, glucocorticoid receptor (GR), human; 13-mer centred on T635; source: synthetic peptide) [GR pT635, FITC-labelled 13-mer phosphopeptide]", "binding result": "binds"}
{"BINDER": "{FITC′}-RSYRQS[pS]ANLLCF (peptide, UniProt P04150 611-623, looked up, also: phosphoserine at 617 (S6 or S7), glucocorticoid receptor (GR), human; 13-mer centred on S617; source: synthetic peptide) [GR_pS617, FITC-labelled 13-mer phosphopeptide]", "binding result": "binds"}
{"BINDER": "{FITC′}-KTIVPA[pT]LPQLTP (peptide, UniProt P04150 518-530, looked up, also: phosphothreonine at 524 (T2, T7 or T12), glucocorticoid receptor (GR), human; 13-mer centred on T524; source: synthetic peptide) [GR_pT524, FITC-labelled 13-mer phosphopeptide]", "binding result": "binds"}

Then this binder:
Sure, the documented binding result for {FITC}-STWRIM[pT]TLNMLG (peptide, UniProt P04150 555-567, looked up, glucocorticoid receptor (GR), human; 13-mer centred on T561; source: synthetic peptide) [GR pT561, FITC-labelled 13-mer phosphopeptide] is binds
